# Tested on: MOLT-4
# method: NCI tumour cell line growth inhibition, 48 h
Activity calls are given as the source filed them. Cut-off read from the data, not from the text of the source: active = GI50 up to about 1.1 µM and inactive = higher.
Write down the outcome that applies. Available outcomes: active, inactive

>>> print(df.to_string())
                                   compound  qualitative_label
0  C[C@]12CCC(=O)C=C1CC[C@@H]1C2CC[C@]2(C)Nc3c(ncn3-c3ccc(F)cc3)CC12 (stereo not given in full)           inactive
1  N=C1N(/N=C/c2ccccn2)/C(=N\c2ccccc2)C(=S)N1c1ccccc1           inactive
2  CCC(C)c1cccc(C)c1NC(=O)C(=O)Cc1nc2ccccc2s1 (stereo not given)           inactive
3         CCCNC1=NC(C)=CSC(Nc2ccccc2)=C1C#N           inactive
4  C/C=C1\CN2CCc3c([nH]c4ccccc34)C2CC1CCO (stereo not given)           inactive

Please turn your attention to the following entry.
Assay outcome for Cc1nc2ccc(NC3OCC(O)C(O)C3O)cc2c(=O)n1-c1ccccc1 (stereo not given) : what was it?
inactive

====

# Tested on: BT-549
# method: NCI tumour cell line growth inhibition, 48 h
Activity calls are given as the source filed them. Cut-off read from the data, not from the text of the source: active = GI50 up to about 1.1 µM and inactive = higher.
measured.attribute: GI50

In [3]: df
Out[3]:
                                   compound  system_under_test       value_measured
0  CC(Cl)CN1c2ccccc2Sc2ccc(Cl)cc21 (stereo not given)             BT-549   > 10 µM (inactive)
1  C[C@]12CCC(=O)C=C1CC[C@@H]1C2CC[C@]2(C)Nc3c(ncn3-c3ccc(F)cc3)CC12 (stereo not given in full)             BT-549   20.3 µM (inactive)
2    CC1(C)OCN(c2ccc(Cl)cc2)Cn2c1nc1ccccc12             BT-549  > 100 µM (inactive)
3  CCOC(=O)/C=C/[C@H](O)[C@@H](O)/C=C/C(=O)OCC             BT-549   35.3 µM (inactive)

Moving on to the next compound.
Query the reported GI50 for BT-549; item: O=c1c(C(c2cnc3ccccc3c2)c2c(O)oc3ccccc3c2=O)c(O)oc2ccccc12
20.7 µM (inactive)

====

Parameter: GI50. Scope: all listed entries.
# Test system: HL-60
# method: NCI tumour cell line growth inhibition, 48 h
Activity calls are given as the source filed them. Rule as the data show it: active = GI50 up to about 1.1 µM and inactive = higher.

Looking for the measured GI50 of Cc1ccccc1NC(=O)CC(=O)NNCC(=O)Nc1nnc(-c2ccccc2)s1 , can you help?
31.5 µM (inactive)

Looking for the measured GI50 of C/C=C1/C=CC2c3[nH]c4ccccc4c3CCN2C1 (stereo not drawn) , can you help?
> 400 µM (inactive)

Looking for the measured GI50 of CC(C)=CCC/C(C)=C/CC/C(C)=C/CC/C=C(\C)CC/C=C(\C)CCC1SC1(C)C (stereo not drawn) , can you help?
> 100 µM (inactive)

====

# System: UO-31
# method: NCI tumour cell line growth inhibition, 48 h
Calls of active or inactive are those of the source. Rule as the data show it: active = GI50 up to about 1.1 µM and inactive = higher.
Write down the outcome that applies. Available outcomes: active, inactive

Solved cases (5 shown):
compound	qualitative.label
C=C(C)C1CC=C(C)CC1 (centres undefined)	inactive
Cn1c(=O)c(C(c2ccc([N+](=O)[O-])cc2)c2c(O)c3ccccc3n(C)c2=O)cc2ccccc21 (centres undefined)	inactive
CC(=N\N)/C(C)=N/N=C(C)/C(C)=N/N=C(C)/C(C)=N/N	inactive
COC(=O)C1=C(O)C(C(=O)OC)[C@]2(O)[C@H](C(=O)OC)[C@H]1C[C@@H](c1ccc(Cl)cc1)[C@H]2C(=O)OC (some centres undefined)	inactive
CCCCCCCCCCCCCS(=O)(=O)NCC(N)=O	inactive

Assay outcome for CC[C@](O)(CC(=O)O[C@H]1C(=O)O[C@@H]2C[C@H]3C(C)=CC(=O)[C@@H](O)[C@]3(C)[C@H]3[C@@]4(O)OC[C@]32[C@@H]1[C@@H](C)[C@H]4O)C(C)C : what was it?
active

Assay outcome for CN1C(=O)N(C)C(O)C(Cl)(Br)C1=O (centres undefined) : what was it?
inactive

Assay outcome for CCCCCCCCCCC[N+]1(Cc2ccccc2)CC2CCN(Cc3ccccc3)CC2C1 (centres undefined) : what was it?
inactive

Assay outcome for O=C1C2=C(C3=NCCc4c[nH]c1c43)C1(C=C(Br)C(O)C(Br)=C1)CCN2 (centres undefined) : what was it?
inactive
